Target: GABARAP, O95166
Sequence (O95166 whole entry, the tested form may be a part): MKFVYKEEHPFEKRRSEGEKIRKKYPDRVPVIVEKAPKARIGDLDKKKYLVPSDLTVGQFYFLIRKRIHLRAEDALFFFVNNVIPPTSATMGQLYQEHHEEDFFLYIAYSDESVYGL
Experiment: median log2 fold change of GCK-ALFA target abundance (FLAG IP / Myc IP barcode read proportion) (log2 ratio); each designed protein is fused to an ALFA-tag nanobody in HEK293 cells to bring the named protein to FLAG-tagged glucokinase (GCK); Myc marks an untargeted standard; higher = target protein stabilised (more abundant)
Details: target protein: 3xFLAG-MCP-GCK-ALFA reporter; HEK293 landing pad (RPLP)
The full ranking holds about 4,500 sequences; the median of “median log2 fold change of GCK-ALFA target abundance (FLAG IP / Myc IP barcode read proportion)” is about 0.078, and the lowest 2% start at about -0.6. The full list was thinned out, with the lowest values kept by preference.
// label = criterion met if median log2 fold change is not less than 0.1, otherwise criterion not met

stdin: In plain terms: is recorded median log2 fold change at least 0.1 for GBRAP_160_4005 (protein) SAEIEALIKEIEELVKETKEWMKGLSPEERLTLARGMVGEIIQLAIDSPAVSDETEDKIAEIGDETIARLEANANASLEVWEKILDDYLEKVKELLKSDE ?
stdout: criterion met
